Origin of measurements: paper PMC5540273

test system: CAMK2B; details: concentration: 1 μM, replicates: in singlicate; n = 1;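 also: KINOMEscan kinase panel screen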
MEASURED_ATTRIBUTE: %Inh (%)
Numeric only. Scale: %

Cc1ccc(Oc2ccc(Nc3ncnc4cc[nH]c34)cc2C)cn1 : 0
O=C(Nc1n[nH]c2cc(-c3ccccc3F)ccc12)C1CC1 : 0

Request body: readout %Inh, system CAMK2B, query "O=C(Nc1n[nH]c2nc(-c3ccccc3)c(Cl)cc12)C1CC1" . Return the value.
0

Request body: readout %Inh, system CAMK2B, query "Cc1nn2c(=O)cc(N3CCOCC3)nc2n1Cc1cccc(Cl)c1Cl" . Return the value.
0

Request body: readout %Inh, system CAMK2B, query "Cc1nnc(-c2ccc(C)c(-c3ccc(C(=O)O)cc3)c2)o1" . Return the value.
0

Request body: readout %Inh, system CAMK2B, query "Cl.c1ccc(Cn2cnc3cc(Nc4ncnc5ccccc45)ccc32)cc1" . Return the value.
0

---

test system: KIT; details: concentration: 1 μM, replicates: in singlicate; n = 1
MEASURED_ATTRIBUTE: %Inh (%)
Numeric only. Scale: %

Example results:
COc1ccc(Nc2nccc(N3CCC(NS(=O)(=O)c4ccc(NC(C)=O)cc4)C3)n2)cc1 (centres unmarked) : 9
CCc1ccc(-c2ccc3c(c2)-c2nn(C)cc2S(=O)(=O)N3C)cc1 : 0
Cl.NS(=O)(=O)c1cccc(Nc2cc(-c3ccc(F)cc3)n[nH]2)c1 : 90

Endpoint output: %Inh of "CCC(=O)c1c(-c2ccccc2)c2cc(Cl)ccc2c(=O)n1Cc1ccc(C(=O)O)cc1" . Value?
39

Endpoint output: %Inh of "Cc1cc(Nc2nc(-c3cccc(C)n3)nc3ccccc23)ccn1" . Value?
0

Endpoint output: %Inh of "COC(=O)c1c(-c2ccccc2)c2cc(Br)ccc2c(=O)n1Cc1ccc(NC(=O)CCC(=O)O)cc1" . Value?
38

Endpoint output: %Inh of "COc1cc2nccc(Nc3ccc(OCc4ccc(NC(C)=O)cc4)cc3)c2cc1OC.Cl" . Value?
100

Endpoint output: %Inh of "Fc1cccc(CSc2nnc(-c3ccc4c(c3)CCO4)o2)c1" . Value?
5

---

tested on: YSK4; construct: gene MAP3K19; conditions: concentration: 1 μM, replicates: in singlicate; n = 1
Cut-off 20% on %Inh: below means Fulfilled, at or above means Not fulfilled.

Some solved cases for reference:
COC(=O)c1c(-c2ccccc2)c2cc(Br)ccc2c(=O)n1Cc1ccc(S(C)(=O)=O)cc1 : Fulfilled
COc1cc2ncn(-c3cc(OCc4ccncc4Br)c(C(N)=O)s3)c2cc1OC : Not fulfilled
Cc1cc(Nc2nc(-c3cccc(C)n3)nc3ccccc23)ccn1 : Fulfilled
COc1cccc(C2=C(Nc3cccc(C(=O)O)c3)C(=O)NC2=O)c1 : Fulfilled

Find out if reported %Inh for "O=C(NCCNc1ccnc(Nc2ccc(F)cc2)n1)Nc1ccc2c(c1)OCO2" is less than 20%
Fulfilled

Find out if reported %Inh for COc1cc(Nc2nccc(N3CCC(NC(=O)C4COc5ccccc5O4)C3)n2)cc(OC)c1OC (centres unmarked) is less than 20%
Fulfilled

---

%Inh values for the compounds below.
system: MEK1; construct: gene MAP2K1; details: concentration: 1 μM, replicates: in singlicate; n = 1
Numeric only. Scale: %

CCc1nc(-c2cccc(C)c2)c(-c2ccncc2)s1 : 2
COc1ccc(-n2cnc3c(N)ncnc32)cc1 : 0
Cc1nnc(-c2ccc(C)c(-c3ccc(C(=O)O)cc3)c2)o1 : 0
CCn1c(-c2nonc2N)nc2ccccc21 : 30
CC(C)(C)c1ccc(C(=O)Nc2cn3cc(-c4ccccc4)ccc3n2)cc1 : 0
Cc1nn2c(=O)cc(N3CCOCC3)nc2n1Cc1cccc(Cl)c1Cl : 0
O=C1NC(=O)C(c2ccccc2)=C1Nc1cccc(O)c1 : 16
CCC(=O)c1c(-c2ccccc2)c2cc(Cl)ccc2c(=O)n1Cc1cc(C(=O)NC2CC2)n(C)n1 : 6
COc1ccc(Nc2nccc(N3CCC(NS(=O)(=O)c4ccc(NC(C)=O)cc4)C3)n2)cc1 (centres unmarked) : 0
COc1cc2ncn(-c3cc(OCc4ccc(S(C)(=O)=O)cc4)c(C(N)=O)s3)c2cc1OC : 30

Endpoint output: %Inh of "COc1cc2nccc(Nc3cccc(Oc4ccccc4)c3)c2cc1OC.Cl" . Value?
87

---

tested on: PIP5K1A; details: concentration: 1 μM, replicates: in singlicate; n = 1
%Inh values for the molecules below.
Mention the unit after the number when you answer.

Example results:
Nc1n[nH]c2nnc(-c3ccccc3)c(-c3ccccc3)c12 : 11%
Nc1ncnc2c1ncn2-c1cccc(F)c1 : 6%
Cc1nn2c(=O)cc(N3CCOCC3)nc2n1Cc1cccc(Cl)c1Cl : 0%
COc1cccc(C2=C(N(C)c3ccccc3)C(=O)NC2=O)c1 : 0%
COc1cc(Nc2nccc(N3CCC(NC(=O)C(C)c4ccc(Cl)cc4)C3)n2)cc(OC)c1OC (stereo not shown) : 42%
CCC(=O)c1c(-c2ccccc2)c2cc(Cl)ccc2c(=O)n1Cc1cc(C(=O)NC2CC2)n(C)n1 : 0%
COc1cccc(C2=C(Nc3cccc(C(=O)O)c3)C(=O)NC2=O)c1 : 5%
O=C1NC(=O)C(c2ccccc2)=C1Nc1cccc(O)c1 : 5%

Endpoint output: %Inh of "CN1C(=O)C(Nc2cc(Cl)c(O)c(Cl)c2)=C(c2ccc(Cl)cc2)C1=O" . Value?
0%

Endpoint output: %Inh of "Nc1n[nH]c2ncc(-c3ccccc3)cc12" . Value?
0%

---

tested on: MST1; construct: gene STK4; details: concentration: 1 μM, replicates: in singlicate; n = 1
%Inh values for the molecules below.
Numeric only. Scale: %

Example results:
Nc1ncnc2c1ncn2-c1cccc(F)c1 : 0
COC(=O)c1c(-c2ccccc2)c2cc(C)ccc2c(=O)n1Cc1ccccc1 : 0
CCn1c(-c2ccoc2)nc2cnccc21 : 0

With those in mind, consider the next molecule.
Endpoint output: %Inh of "Nc1ncnc2c1ncn2-c1cccc2ccccc12" . Value?
7

---

tested on: CSNK1G1; details: concentration: 1 μM, replicates: in singlicate; n = 1
%Inh values for the compounds below.

Example results:
Cc1cccc(-c2cc(-c3c[nH]nc3-c3ccccn3)ccn2)c1 : 8%
O=C(Nc1n[nH]c2nc(-c3ccccc3)c(Cl)cc12)C1CC1 : 0%
CCn1c(-c2nonc2N)nc2ccccc21 : 0%
COc1ccc(CNC(=O)NC2CCN(c3ccnc(Nc4ccc(F)cc4)n3)C2)cc1 (stereo not drawn) : 21%
O=C1NC(=O)C(c2ccccc2)=C1Nc1cccc(O)c1 : 0%
Nc1nccc2scc(-c3ccc4c(c3)CCN4C(=O)Cc3ccccc3)c12 : 7%
COc1cc(Nc2nccc(N3CCC(NC(=O)C(C)c4ccc(Cl)cc4)C3)n2)cc(OC)c1OC (stereo not drawn) : 0%
COc1cc2ncn(-c3cc(OCc4ccc(S(C)(=O)=O)cc4)c(C(N)=O)s3)c2cc1OC : 0%

Endpoint output: %Inh of "COc1cccc(-n2cnc3c(N)ncnc32)c1" . Value?
0%

---

test system: TYK2(JH2domain-pseudokinase); conditions: concentration: 1 μM, replicates: in singlicate; n = 1
MEASURED_ATTRIBUTE: %Inh (%)
Numeric only. Scale: %

Example results:
FC(F)(F)c1ccc(-c2ncn(CCCN3CCOCC3)c2-c2ccncc2)cc1 [SB-217780] : 24
O=C(Nc1n[nH]c2nc(-c3ccccc3)c(Br)cc12)C1CC1 [SB-708998] : 1
O=C(NCCNc1ccnc(Nc2ccc(F)cc2)n1)Nc1ccc2c(c1)OCO2 [GSK1379882] : 28
COc1cc(Nc2ccnc3ccc(C(F)(F)F)cc23)cc(OC)c1OC [GW577382] : 0
COc1ccc(-c2coc3ccc(-c4nnc(SCc5cccc(C#N)c5)o4)cc23)cc1 : 0

With those in mind, consider the next compound.
Endpoint output: %Inh of Nc1n[nH]c2ncc(-c3ccccc3)cc12 [SB-517081] . Value?
92.7

---

test system: SYK; conditions: concentration: 1 μM, replicates: in singlicate; n = 1
MEASURED_ATTRIBUTE: %Inh

Example results:
C[C@@H]1CC[C@H](C(=O)NC2CCCCC2)CN1c1cc(-c2ccc3c(N)n[nH]c3c2)nc(N)n1 : 37%
COc1cc2ncn(-c3cc(OCc4ccc(S(C)(=O)=O)cc4)c(C(N)=O)s3)c2cc1OC : 0%
Cc1nn2c(=O)cc(N3CCOCC3)nc2n1Cc1cccc(Cl)c1Cl : 8%
COc1cc2nccc(Nc3ccc(OCc4ccc(NC(C)=O)cc4)cc3)c2cc1OC.Cl : 6%
COc1cc2nccc(Nc3cccc(Oc4ccccc4)c3)c2cc1OC.Cl : 37%

Endpoint output: %Inh of Cc1nnc(-c2ccc3ncn(-c4ccc(S(C)=O)cc4)c3c2)o1 (centres unmarked) . Value?
0%

Endpoint output: %Inh of "O=C(Nc1n[nH]c2cc(-c3ccccc3F)ccc12)C1CC1" . Value?
17%

Endpoint output: %Inh of "CCS(=O)(=O)c1ccc(OC)c(Nc2ncc(-c3ccc(F)cc3)o2)c1.Cl" . Value?
48%

Endpoint output: %Inh of "FC(F)(F)c1ccc(-c2ncn(CCCN3CCOCC3)c2-c2ccncc2)cc1" . Value?
0%

Endpoint output: %Inh of CCS(=O)c1ccc(-c2coc3ccc(-c4nnc(C)o4)cc23)cc1 (centres unmarked) . Value?
13%

Endpoint output: %Inh of "COC(=O)c1c(-c2ccccc2)c2cc(Br)ccc2c(=O)n1Cc1ccc(NC(=O)CCC(=O)O)cc1" . Value?
0%
